Quick list: IC50 per entry.
Test target: Recombinant human renin (Homo sapiens)
Construct: isolate the active form (residues 67-406)
Experimental details: In vitro enzymatic activity assay of renin inhibitors (fluorogenic peptide substrate)
Measurement parameters: recombinant human renin 3 nM, 1 μM substrate QXL520/HiLyteFluo488 peptide, pH 7.4, 37° C., fluorescence; values given as ranges; read-out: IC50 of Exemplified Compounds Against Renin, IC50
Result type: IC50

Smiles text	Result
O=C(c1ccsc1-c1ccccc1Oc1ccccc1)N1CCNC[C@H]1Cc1ccccc1	< 1000 nM
CC(C)(C)n1ncc(C(=O)N2CCNC[C@H]2Cc2ccccc2)c1-c1ccccc1	1000 to 50000 nM
O=C(c1ccccc1-c1ccc(F)cc1)N1CCNC[C@H]1Cc1ccccc1	1000 to 50000 nM
Cn1cc(-c2ccccc2Oc2ccccc2)c(C(=O)N2CCNC[C@H]2Cc2ccccc2)n1	< 1000 nM

====

Test target: Recombinant human renin (Homo sapiens)
Construct: isolate the active form (residues 67-406)
Sequence (P00797 67-406): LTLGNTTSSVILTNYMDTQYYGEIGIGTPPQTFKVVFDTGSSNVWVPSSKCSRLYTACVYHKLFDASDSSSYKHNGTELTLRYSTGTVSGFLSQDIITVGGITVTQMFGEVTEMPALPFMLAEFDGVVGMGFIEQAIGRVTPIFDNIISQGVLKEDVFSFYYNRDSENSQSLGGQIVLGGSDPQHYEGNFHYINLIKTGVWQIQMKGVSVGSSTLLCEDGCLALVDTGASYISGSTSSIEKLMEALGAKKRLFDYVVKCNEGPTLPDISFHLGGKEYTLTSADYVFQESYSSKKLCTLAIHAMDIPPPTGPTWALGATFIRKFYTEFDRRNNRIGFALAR
Experimental details: In vitro enzymatic activity assay of renin inhibitors (fluorogenic peptide substrate)
Measurement parameters: recombinant human renin 3 nM, 1 μM substrate QXL520/HiLyteFluo488 peptide, pH 7.4, 37° C., fluorescence; values given as ranges; read-out: IC50 of Exemplified Compounds Against Renin, IC50
pIC50: −log10 of the molar value.
Quick list: pIC50 per entry.

Compound	pIC50
O=C(c1cncn1-c1cccc2ccccc12)N1CCNC[C@H]1Cc1ccccc1 [Example 26]	< 4.00
CC(=O)NCCc1ccccc1Oc1ccccc1-c1ccsc1C(=O)N1CCNC[C@H]1Cc1ccccc1 [Example 39]	> 6.00
O=C(c1nc(-c2cccnc2)sc1-c1ccccc1)N1CCNC[C@H]1Cc1ccccc1 [Example 30]	4.30 to 6.00
O=C(c1ccc(F)cc1-c1ccccc1Oc1ccccc1)N1CCNC[C@H]1Cc1ccccc1 [Example 15]	4.30 to 6.00
O=C(c1ccccc1)c1ccccc1C(=O)N1CCNC[C@H]1Cc1ccccc1 [Example 22]	4.30 to 6.00
O=C(c1c(-c2ccccc2Cl)noc1C1CC1)N1CCNC[C@H]1Cc1ccccc1 [Example 33]	4.30 to 6.00
O=C(c1cncn1-c1ccccc1-c1ccccc1)N1CCNC[C@H]1Cc1ccccc1 [Example 27]	4.30 to 6.00
O=C(c1ccccc1-c1nc2ccccc2s1)N1CCNC[C@H]1Cc1ccccc1 [Example 32]	4.30 to 6.00

====

Quick list: IC50 per entry.
Test target: Recombinant human renin (Homo sapiens, UniProt P00797)
Construct: isolate the active form (residues 67-406)
Sequence (P00797 67-406): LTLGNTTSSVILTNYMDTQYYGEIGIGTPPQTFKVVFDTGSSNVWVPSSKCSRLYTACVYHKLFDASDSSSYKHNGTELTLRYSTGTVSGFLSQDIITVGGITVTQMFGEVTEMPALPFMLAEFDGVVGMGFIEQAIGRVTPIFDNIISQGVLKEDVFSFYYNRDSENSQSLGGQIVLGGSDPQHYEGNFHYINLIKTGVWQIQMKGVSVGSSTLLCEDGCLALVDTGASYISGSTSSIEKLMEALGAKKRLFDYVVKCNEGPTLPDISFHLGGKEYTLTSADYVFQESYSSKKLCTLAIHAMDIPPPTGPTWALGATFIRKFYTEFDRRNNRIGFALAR
Experimental details: In vitro enzymatic activity assay of renin inhibitors (fluorogenic peptide substrate)
Measurement parameters: recombinant human renin 3 nM, 1 μM substrate QXL520/HiLyteFluo488 peptide, pH 7.4, 37° C., fluorescence; values given as ranges; read-out: IC50 of Exemplified Compounds Against Renin, IC50
Result type: IC50

Compound	Result
CCn1nc(C)c(-c2ccccc2Oc2ccccc2)c1C(=O)N1CCNC[C@H]1Cc1ccccc1	1 to 50 µM
O=C(c1ccccc1Cc1ccccc1)N1CCNC[C@H]1Cc1ccccc1	1 to 50 µM
O=C(c1cc(F)ccc1-c1ccccc1Oc1ccccc1)N1CCNC[C@H]1Cc1ccccc1	1 to 50 µM
O=C(c1cc(-c2ccccc2Oc2ccccc2)cs1)N1CCNC[C@H]1Cc1ccccc1	1 to 50 µM
Cc1oc(-c2ccccc2)nc1Cn1nc(C(=O)N2CCNC[C@H]2Cc2ccccc2)c2ccccc21	1 to 50 µM
O=C(c1ccccc1-c1ccccc1)N1CCNC[C@H]1Cc1ccccc1	1 to 50 µM
O=C(c1sccc1-c1ccccc1Oc1ccccc1)N1CCNC[C@H]1Cc1ccccc1	< 1 µM
O=C(C1CC1c1ccccc1)N1CCNCC1Cc1ccccc1 (stereo in doubt)	> 100 µM
O=C(c1ccc(-c2ccccc2Oc2ccccc2)o1)N1CCNC[C@H]1Cc1ccccc1	1 to 50 µM
O=C(c1ccnn1-c1ccccc1)N1CCNC[C@H]1Cc1ccccc1	1 to 50 µM
Cc1noc(-c2ccccc2)c1C(=O)N1CCNC[C@H]1Cc1ccccc1	50 to 100 µM
O=C(c1ccccc1OCc1ccccc1)N1CCNC[C@H]1Cc1ccccc1	1 to 50 µM
Cc1ccc(-c2ccccc2C(=O)N2CCNC[C@H]2Cc2ccccc2)cc1C	< 1 µM
N#Cc1cccnc1Oc1ccccc1-c1ccsc1C(=O)N1CCNC[C@H]1Cc1ccccc1	1 to 50 µM
CC(=O)NCc1cccnc1Oc1ccccc1-c1ccsc1C(=O)N1CCNC[C@H]1Cc1ccccc1	1 to 50 µM
Cc1cc(C)c(C#N)c(Oc2ccccc2-c2ccsc2C(=O)N2CCNC[C@H]2Cc2ccccc2)n1	1 to 50 µM
O=C(c1ccsc1-c1ccccc1CN1CCOCC1)N1CCNC[C@H]1Cc1ccccc1	1 to 50 µM
